tested on: CAPAN-1 (a BRCA-2-mutated pancreatic cancer cell line); experiment: Cell proliferation assay, three-day, CellTiter-Glo, CAPAN-1; assay type: cell-based; conditions: Homo sapiens; CAPAN-1, 3.70 uM, replicate 2; read-out: Inh % 2
Reported inhibition at 3.7 µM values are given for each entry in this list.
Note: unit % is implicit; provide only the numeric part.

A selection of reference data follows.
# Molecule, Numeric Value
records = [
    ("NC(=O)c1cccc2[nH]c(C3CCN(CCCNc4ccccc4)C3)nc12 (stereo not shown)", 10.2),
    ("NC(=O)c1cccc2[nH]c(C3CCN(CCCC(=O)c4ccccc4)C3)nc12 (stereo not shown)", 1.6),
    ("NC(=O)c1cccc2[nH]c(C3CCN(CCC(=O)Nc4ccccc4)C3)nc12 (stereo not shown)", 9.9),
    ("NC(=O)c1cccc2[nH]c(C3CCN(CCCN4C(=O)c5ccccc5C4=O)C3)nc12 (stereo not shown)", 9.9),
    ("COc1ccc(C(=O)CCN2CCC(c3nc4c(C(N)=O)cccc4[nH]3)C2)cc1 (stereo not shown)", -0.2),
    ("NC(=O)c1cccc2[nH]c(C3CCN(CCC(=O)c4ccc(Cl)cc4)C3)nc12 (stereo not shown)", 2.2),
    ("NC(=O)c1cccc2[nH]c(C3CCN(CCN4C(=O)c5ccccc5C4=O)C3)nc12 (stereo not shown)", 2.6),
    ("NC(=O)c1cccc2[nH]c(C3CCN(CC(=O)Nc4ccccc4)C3)nc12 (stereo not shown)", 19.9),
    ("NC(=O)c1cccc2[nH]c(C3CCN(CC(=O)c4ccccc4)C3)nc12 (stereo not shown)", 4.4),
]

Here NC(=O)c1cccc2[nH]c(C3CCN(CC(O)c4ccccc4)C3)nc12 (stereo not shown) was tested on CAPAN-1 (a BRCA-2-mutated pancreatic cancer cell line), and its inhibition at 3.7 µM came to 3.5

###

tested on: CAPAN-1 (a BRCA-2-mutated pancreatic cancer cell line); assay: Cell proliferation assay, three-day, CellTiter-Glo, CAPAN-1; format: cell-based; conditions: Homo sapiens; CAPAN-1, 0.14 uM, replicate 2; read-out: Inh % 2
Reported inhibition at […] values are given for each entry in this list.
Note: unit % is implicit; provide only the numeric part.

# Molecule, Unit Symbol, inhibition at […]
data = [
    ("NC(=O)c1cccc2[nH]c(C3CCN(CCN4C(=O)c5ccccc5C4=O)C3)nc12 (stereo not shown)", "%", -3.2),
    ("NC(=O)c1cccc2[nH]c(C3CCN(CCC(=O)c4ccc(Cl)cc4)C3)nc12 (stereo not shown)", "%", -6.2),
    ("NC(=O)c1cccc2[nH]c(C3CCN(CCC(=O)Nc4ccccc4)C3)nc12 (stereo not shown)", "%", 2.2),
    ("NC(=O)c1cccc2[nH]c(C3CCN(CC(=O)c4ccccc4)C3)nc12 (stereo not shown)", "%", -1.1),
    ("NC(=O)c1cccc2[nH]c(C3CCN(CC(=O)Nc4ccccc4)C3)nc12 (stereo not shown)", "%", 15.6),
]

Here NC(=O)c1cccc2[nH]c(C3CCN(CCCN4C(=O)c5ccccc5C4=O)C3)nc12 (stereo not shown) was tested on CAPAN-1 (a BRCA-2-mutated pancreatic cancer cell line), and its inhibition at […] came to -2.2

Here NC(=O)c1cccc2[nH]c(C3CCN(CCCNc4ccccc4)C3)nc12 (stereo not shown) was tested on CAPAN-1 (a BRCA-2-mutated pancreatic cancer cell line), and its inhibition at […] came to -3

Here NC(=O)c1cccc2[nH]c(C3CCN(CC(O)c4ccccc4)C3)nc12 (stereo not shown) was tested on CAPAN-1 (a BRCA-2-mutated pancreatic cancer cell line), and its inhibition at […] came to -1.9

Here COc1ccc(C(=O)CCN2CCC(c3nc4c(C(N)=O)cccc4[nH]3)C2)cc1 (stereo not shown) was tested on CAPAN-1 (a BRCA-2-mutated pancreatic cancer cell line), and its inhibition at […] came to 5.4

Here NC(=O)c1cccc2[nH]c(C3CCN(CCCC(=O)c4ccccc4)C3)nc12 (stereo not shown) was tested on CAPAN-1 (a BRCA-2-mutated pancreatic cancer cell line), and its inhibition at […] came to 7.4
